Origin of values: ChEMBL document CHEMBL1149475

Can you tell me GI50 for the items I'm about to list?
Tested on: DLD-1
Assay: Antiproliferative activity against human DLD1 cells
Type: functional
Give bare numbers, in nM.

molecule | assay.system | unit.name | result.value
COC1=C(C)C(=O)C2=C(C1=O)[C@@H]1[C@@H]3CC4=C(C(=O)C(OC)=C(C)C4=O)[C@H](CNC(=O)c4cc5cc(OC6CCOCC6)ccc5o4)N3[C@@H](C#N)[C@H](C2)N1C | DLD-1 | nM | 26.5
COc1c(C)c(OC)c2c(c1O)[C@@H]1[C@@H]3Cc4c(OC)c(C)c(OC)c(O)c4[C@H](CNC(=O)c4ccc5ccccc5n4)N3[C@@H](C#N)[C@H](C2)N1C | DLD-1 | nM | 8.1
COc1c(C)c(OC)c2c(c1O)[C@@H]1[C@@H]3Cc4c(OC)c(C)c(OC)c(O)c4[C@H](CNC(=O)c4cc5cc(OC6CCOCC6)ccc5o4)N3[C@@H](O)[C@H](C2)N1C | DLD-1 | nM | 10.4

Quick batch: GI50 for everything below.
1. COc1c(C)c(OC)c2c(c1O)[C@@H]1[C@@H]3Cc4c(OC)c(C)c(OC)c(O)c4[C@H](CNC(=O)c4cc5cc(OCCN6CCOCC6)ccc5o4)N3[C@@H](C#N)[C@H](C2)N1C
2. COc1c(C)c(OC)c2c(c1O)[C@@H]1[C@@H]3Cc4c(OC)c(C)c(OC)c(O)c4[C@H](CNC(=O)c4cc5cc(OC6CCOCC6)ccc5o4)N3[C@@H](C#N)[C@H](C2)N1C

Completion:
1: 22.4; 2: 8.3
